Data provenance is patent US20220281819A1.

- system-under-test: TEAD1 (Homo sapiens)
- Sequence (P28347 whole entry, species assumed): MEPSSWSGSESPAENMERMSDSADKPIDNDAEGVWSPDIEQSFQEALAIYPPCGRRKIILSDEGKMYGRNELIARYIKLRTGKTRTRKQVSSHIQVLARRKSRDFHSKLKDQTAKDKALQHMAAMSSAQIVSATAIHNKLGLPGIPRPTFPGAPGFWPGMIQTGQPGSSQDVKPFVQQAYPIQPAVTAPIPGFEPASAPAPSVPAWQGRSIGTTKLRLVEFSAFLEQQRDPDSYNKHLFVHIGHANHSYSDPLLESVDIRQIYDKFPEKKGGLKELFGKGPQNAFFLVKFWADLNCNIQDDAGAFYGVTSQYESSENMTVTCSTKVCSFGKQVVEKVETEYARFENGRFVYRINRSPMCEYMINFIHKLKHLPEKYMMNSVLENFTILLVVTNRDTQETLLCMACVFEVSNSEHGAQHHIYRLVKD
- run-description: Lipid HTRF (TR-FRET lipid pocket probe competition), 30 min pre-incubation, TEAD1
- Assay type: binding
- condition-summary: His-tagged TEAD1, 30 minutes pre-incubation with compound at room temperature; read-out: Lipid HTRF TEAD1 IC50
metric: IC50 (nM)

These recorded examples may help you get a feel for the data.
# smiles-entry, IC50, nM
data = [
    ("C=CC(=O)Nc1cc(/C=C/C2CCC(F)(F)CC2)c(C#N)cn1", 50),
    ("C=CC(=O)Nc1cnc(OC)c(/C=C/C2CC(F)(F)C2)c1", 1350),
    ("C=CC(=O)Nc1cnc(OC)c(/C=C/CC(C)C)c1", 220),
    ("CC(F)(F)c1ccc(-c2cc(NC(=O)[C@@H]3CO3)c(C#N)c3c2OCC3)cc1", 50),
    ("C=CC(=O)Nc1ccc(OC)c(/C=C/CC2CCCC2)c1", 40),
]

1 = CC(F)(F)c1ccc(-c2cc(NC(=O)[C@H]3CO3)c(C#N)c3c2OCC3)cc1
2 = C=CC(=O)Nc1cc(-c2ccc(C(C)C)cc2)c(OC)cc1F
-- ask // pick larger IC50 from pair: 1 vs 2 Identify your selection by its label.
-- reply 1
